Each record here notes measured minimum inhibitory concentration.
Tested on: Enterococcus spp.
assayExplanation: minimum inhibitory concentration (MIC)
setupConditions: isolate (source animal id): 35

Reference set (4 entries):
>  <compound>
NC[C@@H]1O[C@H](O[C@H]2[C@@H](O)[C@H](O[C@@H]3[C@@H](O)[C@H](N)C[C@H](N)[C@H]3O[C@H]3O[C@H](CN)[C@@H](O)[C@H](O)[C@H]3N)O[C@@H]2CO)[C@H](N)[C@@H](O)[C@@H]1O [Neomycin]

>  <minimum inhibitory concentration>
> 32 µg/mL

$$$$
>  <compound>
COc1cc(Cc2cnc(N)nc2N)cc(OC)c1OC.Cc1cc(NS(=O)(=O)c2ccc(N)cc2)no1 [trimethoprim-sulfamethoxazole]

>  <minimum inhibitory concentration>
> 2 µg/mL

$$$$
>  <compound>
CC[C@H]1OC(=O)C[C@@H](O)[C@H](C)[C@@H](O[C@@H]2O[C@H](C)[C@@H](O[C@H]3C[C@@](C)(O)[C@@H](O)[C@H](C)O3)[C@H](N(C)C)[C@H]2O)[C@@H](CC=O)C[C@@H](C)C(=O)/C=C/C(C)=C/[C@@H]1CO[C@@H]1O[C@H](C)[C@@H](O)[C@@H](OC)[C@H]1OC [Tylosin]

>  <minimum inhibitory concentration>
> 32 µg/mL

$$$$
>  <compound>
CCCNC[C@]1(O)[C@H](C)O[C@@H](O[C@H]2[C@H](C)[C@@H](O[C@@H]3O[C@H](C)C[C@H](N(C)C)[C@H]3O)[C@](C)(O)C[C@@H](C)CN[C@H](C)[C@@H](O)[C@](C)(O)[C@@H](CC)OC(=O)[C@@H]2C)C[C@@]1(C)OC [Tulathromycin]

>  <minimum inhibitory concentration>
> 64 µg/mL

$$$$

State measured minimum inhibitory concentration of the compound CC[C@H]1OC(=O)C[C@@H](O)[C@H](C)[C@@H](O[C@@H]2O[C@H](C)[C@@H](O)[C@H](N(C)C)[C@H]2O)[C@@H](CCN2C[C@H](C)C[C@H](C)C2)C[C@@H](C)C(=O)/C=C/C(C)=C/[C@@H]1CO[C@@H]1O[C@H](C)[C@@H](O)[C@@H](OC)[C@H]1OC [Tilmicosin] with Enterococcus spp.. > 16 µg/mL

----------
System: Histophilus somni
assayExplanation: minimum inhibitory concentration (MIC)
setupConditions: isolate (source animal id): 88
Each record here notes measured minimum inhibitory concentration.
Give your result in µg/mL as a bare value.

>  <compound>
NC[C@@H]1O[C@H](O[C@H]2[C@@H](O)[C@H](O[C@@H]3[C@@H](O)[C@H](N)C[C@H](N)[C@H]3O[C@H]3O[C@H](CN)[C@@H](O)[C@H](O)[C@H]3N)O[C@@H]2CO)[C@H](N)[C@@H](O)[C@@H]1O [Neomycin]

>  <target>
Histophilus somni

>  <experimentalValue>
32

$$$$

Next item in the queue.
State measured minimum inhibitory concentration of the compound CC[C@H]1OC(=O)C[C@@H](O)[C@H](C)[C@@H](O[C@@H]2O[C@H](C)[C@@H](O)[C@H](N(C)C)[C@H]2O)[C@@H](CCN2CCCCC2)C[C@@H](C)C(=O)/C=C/C(C)=C/[C@@H]1CN1CCCCC1 [Tildipirosin] with Histophilus somni. 2

----------
System: Escherichia coli
assayExplanation: minimum inhibitory concentration (MIC)
setupConditions: isolate (source animal id): 158
Each record here notes measured minimum inhibitory concentration.

Reference set (3 entries):
>  <smilesCode>
CC[C@H]1OC(=O)C[C@@H](O)[C@H](C)[C@@H](O[C@@H]2O[C@H](C)[C@@H](O)[C@H](N(C)C)[C@H]2O)[C@@H](CCN2C[C@H](C)C[C@H](C)C2)C[C@@H](C)C(=O)/C=C/C(C)=C/[C@@H]1CO[C@@H]1O[C@H](C)[C@@H](O)[C@@H](OC)[C@H]1OC

>  <target>
Escherichia coli

>  <minimum inhibitory concentration>
> 16 µg/mL

$$$$
>  <smilesCode>
CC[C@H]1OC(=O)C[C@@H](O)[C@H](C)[C@@H](O[C@@H]2O[C@H](C)[C@@H](O[C@H]3C[C@@](C)(O)[C@@H](O)[C@H](C)O3)[C@H](N(C)C)[C@H]2O)[C@@H](CC=O)C[C@@H](C)C(=O)/C=C/C(C)=C/[C@@H]1CO[C@@H]1O[C@H](C)[C@@H](O)[C@@H](OC)[C@H]1OC

>  <target>
Escherichia coli

>  <minimum inhibitory concentration>
> 32 µg/mL

$$$$
>  <smilesCode>
NC[C@@H]1O[C@H](O[C@H]2[C@@H](O)[C@H](O[C@@H]3[C@@H](O)[C@H](N)C[C@H](N)[C@H]3O[C@H]3O[C@H](CN)[C@@H](O)[C@H](O)[C@H]3N)O[C@@H]2CO)[C@H](N)[C@@H](O)[C@@H]1O

>  <target>
Escherichia coli

>  <minimum inhibitory concentration>
> 32 µg/mL

$$$$

Next item in the queue.
State measured minimum inhibitory concentration of the molecule CC1(C)S[C@@H]2[C@H](NC(=O)Cc3ccccc3)C(=O)N2[C@H]1C(=O)O with Escherichia coli. > 8 µg/mL
